The origin of these recorded values is patent US20150147274A1.

Target: T1, MET928 (cMET protein derived from construct 25-928) (human, UniProt P08581 25-928)
T1 construct: MET ectodomain, residues 1-24 are the leader; produced in Lec 8 cells; background text says the ectodomain is furin-cleaved into alpha (25-307) and beta chains; biotinylated form used in selections; also called MET928 extracellular domain; Met extracellular domain
T1 sequence (P08581 25-928): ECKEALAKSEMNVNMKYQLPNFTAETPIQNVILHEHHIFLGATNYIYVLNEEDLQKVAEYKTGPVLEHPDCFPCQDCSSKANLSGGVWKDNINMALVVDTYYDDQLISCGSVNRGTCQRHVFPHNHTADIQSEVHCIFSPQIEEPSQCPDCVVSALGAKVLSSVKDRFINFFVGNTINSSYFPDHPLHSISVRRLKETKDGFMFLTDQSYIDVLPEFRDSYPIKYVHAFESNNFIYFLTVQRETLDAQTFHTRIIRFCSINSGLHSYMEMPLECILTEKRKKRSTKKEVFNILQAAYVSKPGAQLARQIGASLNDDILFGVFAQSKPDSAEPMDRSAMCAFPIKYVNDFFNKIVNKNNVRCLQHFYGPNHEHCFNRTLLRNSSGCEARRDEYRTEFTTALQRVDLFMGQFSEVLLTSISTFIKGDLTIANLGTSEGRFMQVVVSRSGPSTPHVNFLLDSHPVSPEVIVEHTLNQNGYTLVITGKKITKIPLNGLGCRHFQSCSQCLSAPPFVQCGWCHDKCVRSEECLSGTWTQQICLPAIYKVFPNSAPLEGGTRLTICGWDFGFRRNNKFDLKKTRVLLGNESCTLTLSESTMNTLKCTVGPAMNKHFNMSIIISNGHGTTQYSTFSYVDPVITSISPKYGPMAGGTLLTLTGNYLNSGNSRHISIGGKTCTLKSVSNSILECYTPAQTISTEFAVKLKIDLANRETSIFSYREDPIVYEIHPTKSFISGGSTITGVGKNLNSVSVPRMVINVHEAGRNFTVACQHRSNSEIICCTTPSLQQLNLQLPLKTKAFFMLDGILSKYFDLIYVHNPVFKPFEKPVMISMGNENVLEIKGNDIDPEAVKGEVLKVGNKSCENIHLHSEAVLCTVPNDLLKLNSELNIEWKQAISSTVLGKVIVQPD
Assay: Biacore SPR, MET-928 on chip, scFv format
The following binders are shown together with reported koff values.

>  <binder>
111_D06 scFv (6xHis/tri-Flag tags) (scFv, 7A2 derivative, only VH CDR3 changed; not shown: 6xHis/tri-FLAG tags of pSANG10-3F) scFv: QMQLVQSGAEVKKPGAPVKVSCKVSGYTFTDYYMHWVQQAPGKGLEWMGLVDPEDGETIYAEKFQGRVTITADTSTDTAYMELSSLRSEDTAVYYCATDATTPYWGMWQWGQGTLVTVSSLEGGGGSGGGGSGGGASDIQMTQSPSSLSASVGDRVTITCQASQDISNYLNWYQQKPGRAPKVLIYDASNLETGVPSRFSGSGSGTEFTLTISNLRPDDFATYYCQQGDSFPLTFGGGTKVEIK

>  <koff>
0.00549 s⁻¹

$$$$
>  <binder>
110_A12 scFv (6xHis/tri-Flag tags) (scFv, 7A2 derivative, only VH CDR3 changed; not shown: 6xHis/tri-FLAG tags of pSANG10-3F) scFv: QMQLVQSGAEVKKPGAPVKVSCKVSGYTFTDYYMHWVQQAPGKGLEWMGLVDPEDGETIYAEKFQGRVTITADTSTDTAYMELSSLRSEDTAVYYCATDATTPYWFPREWGQGTLVTVSSLEGGGGSGGGGSGGGASDIQMTQSPSSLSASVGDRVTITCQASQDISNYLNWYQQKPGRAPKVLIYDASNLETGVPSRFSGSGSGTEFTLTISNLRPDDFATYYCQQGDSFPLTFGGGTKVEIK

>  <koff>
0.00156 s⁻¹

$$$$
>  <binder>
107_A08 scFv (6xHis/tri-Flag tags) (scFv, 7A2 derivative, only VH CDR3 changed; not shown: 6xHis/tri-FLAG tags of pSANG10-3F) scFv: QMQLVQSGAEVKKPGAPVKVSCKVSGYTFTDYYMHWVQQAPGKGLEWMGLVDPEDGETIYAEKFQGRVTITADTSTDTAYMELSSLRSEDTAVYYCATDATTPYWGMVEWGQGTLVTVSSLEGGGGSGGGGSGGGASDIQMTQSPSSLSASVGDRVTITCQASQDISNYLNWYQQKPGRAPKVLIYDASNLETGVPSRFSGSGSGTEFTLTISNLRPDDFATYYCQQGDSFPLTFGGGTKVEIK

>  <koff>
0.00691 s⁻¹

$$$$
